Molecular target: p300 (Homo sapiens, UniProt Q09472)
Construct: host or cells: A549 P300 HiBit cells
Sequence (Q09472 whole entry): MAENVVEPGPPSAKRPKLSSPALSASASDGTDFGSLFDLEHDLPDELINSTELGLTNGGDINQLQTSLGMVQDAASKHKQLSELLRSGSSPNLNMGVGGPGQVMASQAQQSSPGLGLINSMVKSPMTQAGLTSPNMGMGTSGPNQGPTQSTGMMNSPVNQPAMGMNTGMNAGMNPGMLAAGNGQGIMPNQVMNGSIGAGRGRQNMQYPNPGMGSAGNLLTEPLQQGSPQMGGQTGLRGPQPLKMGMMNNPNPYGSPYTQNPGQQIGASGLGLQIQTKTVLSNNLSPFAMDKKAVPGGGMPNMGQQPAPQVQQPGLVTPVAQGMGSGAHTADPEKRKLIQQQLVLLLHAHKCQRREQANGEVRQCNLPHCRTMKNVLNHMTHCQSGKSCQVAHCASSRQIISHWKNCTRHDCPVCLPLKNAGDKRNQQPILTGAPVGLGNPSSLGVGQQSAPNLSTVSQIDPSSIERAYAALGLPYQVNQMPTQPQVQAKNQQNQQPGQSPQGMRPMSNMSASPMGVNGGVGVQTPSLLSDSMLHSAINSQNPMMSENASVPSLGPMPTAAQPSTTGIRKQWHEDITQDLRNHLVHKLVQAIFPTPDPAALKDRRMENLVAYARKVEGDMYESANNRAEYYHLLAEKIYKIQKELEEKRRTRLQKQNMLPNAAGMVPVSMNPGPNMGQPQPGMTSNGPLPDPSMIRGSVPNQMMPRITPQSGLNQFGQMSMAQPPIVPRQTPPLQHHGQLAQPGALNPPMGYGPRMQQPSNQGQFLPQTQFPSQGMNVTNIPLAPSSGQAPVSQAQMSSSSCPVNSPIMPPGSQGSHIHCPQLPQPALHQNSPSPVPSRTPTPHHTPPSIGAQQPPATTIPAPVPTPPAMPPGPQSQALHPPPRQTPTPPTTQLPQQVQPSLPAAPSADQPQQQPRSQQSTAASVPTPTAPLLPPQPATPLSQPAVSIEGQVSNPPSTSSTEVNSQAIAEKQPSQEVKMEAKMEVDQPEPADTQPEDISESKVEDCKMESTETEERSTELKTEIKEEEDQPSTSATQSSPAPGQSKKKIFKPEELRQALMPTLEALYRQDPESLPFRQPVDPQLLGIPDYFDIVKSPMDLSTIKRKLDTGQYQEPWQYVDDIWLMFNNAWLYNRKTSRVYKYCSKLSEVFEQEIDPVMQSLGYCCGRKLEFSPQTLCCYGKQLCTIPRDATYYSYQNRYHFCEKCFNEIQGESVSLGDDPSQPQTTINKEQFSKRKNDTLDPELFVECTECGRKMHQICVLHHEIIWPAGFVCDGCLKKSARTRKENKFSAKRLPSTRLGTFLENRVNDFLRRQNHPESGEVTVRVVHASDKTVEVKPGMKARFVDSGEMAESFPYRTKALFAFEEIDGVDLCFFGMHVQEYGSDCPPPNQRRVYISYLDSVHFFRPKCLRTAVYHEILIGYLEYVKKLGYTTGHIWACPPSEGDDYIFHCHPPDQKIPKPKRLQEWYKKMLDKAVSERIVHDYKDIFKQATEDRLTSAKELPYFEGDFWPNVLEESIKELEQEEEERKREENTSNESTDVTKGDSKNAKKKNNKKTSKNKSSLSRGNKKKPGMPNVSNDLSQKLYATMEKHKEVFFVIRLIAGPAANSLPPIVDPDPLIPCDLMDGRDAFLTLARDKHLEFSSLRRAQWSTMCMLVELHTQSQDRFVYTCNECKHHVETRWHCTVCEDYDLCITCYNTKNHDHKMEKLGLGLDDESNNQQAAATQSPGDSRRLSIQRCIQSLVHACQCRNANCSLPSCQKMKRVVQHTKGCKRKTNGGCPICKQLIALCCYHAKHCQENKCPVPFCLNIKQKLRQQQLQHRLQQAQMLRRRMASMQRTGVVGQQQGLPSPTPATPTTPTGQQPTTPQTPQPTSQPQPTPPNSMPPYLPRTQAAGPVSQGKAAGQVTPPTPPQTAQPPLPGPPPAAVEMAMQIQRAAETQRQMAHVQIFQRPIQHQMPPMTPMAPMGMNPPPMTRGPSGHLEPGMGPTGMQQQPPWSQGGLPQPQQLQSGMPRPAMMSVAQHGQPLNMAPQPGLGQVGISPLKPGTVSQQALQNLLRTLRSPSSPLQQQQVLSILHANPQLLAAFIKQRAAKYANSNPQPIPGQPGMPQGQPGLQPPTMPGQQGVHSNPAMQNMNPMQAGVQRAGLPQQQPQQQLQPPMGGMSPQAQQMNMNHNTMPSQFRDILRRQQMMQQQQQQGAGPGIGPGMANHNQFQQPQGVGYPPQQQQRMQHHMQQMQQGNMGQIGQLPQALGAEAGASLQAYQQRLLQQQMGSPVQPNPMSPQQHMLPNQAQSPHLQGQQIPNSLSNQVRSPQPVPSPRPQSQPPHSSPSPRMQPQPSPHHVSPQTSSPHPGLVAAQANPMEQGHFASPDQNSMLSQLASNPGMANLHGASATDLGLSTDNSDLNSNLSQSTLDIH
Assay: P300 degradation, HiBit technology in A549 P300 HiBit cells (2 h)
Format: cell-based
Conditions: A549 P300 HiBit cells, 2 hrs post treatment
Form field: DC50 (one value per entry).

compound | target.entity | DC50
Cc1cc2c(N3CCCc4nc(-c5ccc(C(=O)NCC#Cc6ccc7c(c6)N(C6CCC(=O)NC6=O)CCCC7)nc5)ncc43)cc(C3CCOCC3)cc2n(C)c1=O (stereo not shown) | p300 (Homo sapiens, UniProt Q09472) | > 1000 nM
Cc1cc2c(N3CCCc4nc(-c5ccc(C(=O)NCC#Cc6ccc7occ(C8CCC(=O)NC8=O)c7c6)nc5)ncc43)nc(C(C)C)cc2n(C)c1=O (stereo not shown) | p300 (Homo sapiens, UniProt Q09472) | 1 to 9.9 nM
CC(C)c1cc(N(C)c2cnc(-c3ccc(C(=O)NCC#Cc4ccc5occ(C6CCC(=O)NC6=O)c5c4)nc3)nc2)cc2c1n(C)c(=O)n2C (stereo not shown) | p300 (Homo sapiens, UniProt Q09472) | 1 to 9.9 nM
Cc1cc2c(N3CCCc4nc(-c5ccc(C(=O)NCC#Cc6ccc7c(c6)c(C6CCC(=O)NC6=O)nn7C)nc5)ncc43)cc(C3CCOCC3)cc2n(C)c1=O (stereo not shown) | p300 (Homo sapiens, UniProt Q09472) | 1 to 9.9 nM
Cc1cc2c(N3CCCc4nc(-c5ccc(C(=O)NCC#Cc6ccc7occ(C8CCC(=O)NC8=O)c7c6)nc5)ncc43)cc(C(C)C)cc2n(C)c1=O (stereo not shown) | p300 (Homo sapiens, UniProt Q09472) | 1 to 9.9 nM

(Q) Could you share which DC50 value was measured for Cn1c(=O)n(C)c2c(N3CCOCC3)nc(-c3cccc4cc(-c5ccc(C(=O)NCC#Cc6ccc7occ(C8CCC(=O)NC8=O)c7c6)nc5)ncc34)cc21 (stereo not shown) ?
(A) < 1 nM

(Q) Could you share which DC50 value was measured for CC(C)c1cc(-c2cccc3cc(-c4ccc(C(=O)NCC#Cc5ccc6c(C(F)F)nn(C7CCC(=O)NC7=O)c6c5)nc4)ncc23)cc2c1n(C)c(=O)n2C (stereo not shown) ?
(A) 1 to 9.9 nM
